# credit: patent US11648258B2

This listing pairs compounds with measured HepG2 cell viability (%).
# System: HepG2 cells (hepatocellular carcinoma)
# Applied Conditions: compound 0.5 ∝g/ml; WST-1
Quantity Measured: HepG2 cell viability (%)

[[record]]
compound = "C[C@]12CC[C@H](O)C[C@H]1CC[C@@H]1[C@@H]2CC[C@]2(C)[C@@H](c3ccc(=O)oc3)C[C@H]3O[C@]132 [Resibufogenin]"
reading = "1.4%"

[[record]]
compound = "CO[C@H]1[C@H](O)[C@H](O[C@H]2CC[C@@]3(C)[C@H](CC[C@@H]4[C@@H]3CC[C@]3(C)[C@H](C5=CC(=O)OC5)CC[C@]43O)C2)O[C@@H](C)[C@@H]1O [17alpha-Neriifolin, reference compound]"
reading = "100%"

[[record]]
compound = "CC(=O)O[C@H]1[C@H]2O[C@]23[C@@H]2CC[C@@H]4C[C@@H](O)CC[C@]4(C)[C@H]2CC[C@]3(C)[C@H]1c1ccc(=O)oc1 [Cinobufagin]"
reading = "1.5%"

[[record]]
compound = "CO[C@H]1[C@H](O)[C@H](O[C@H]2CC[C@@]3(C)[C@@H](C2)C[C@@H]2O[C@]24[C@@H]3CC[C@]2(C)[C@H](C3=CC(=O)OC3)CC[C@]42O)O[C@@H](C)[C@@H]1O [17alpha-Deacetyltanghinin, reference compound]"
reading = "97.2%"

[[record]]
compound = "C[C@]12CC[C@H](O)C[C@H]1CC[C@@H]1[C@@H]2CC[C@]2(C)[C@@H](c3ccc(=O)oc3)CC[C@]12O [Bufalin]"
reading = "13.7%"

